- tested_on: DC-SIGN (SIGNR1/CD209b) (Mus musculus) (UniProt Q8CJ91)
- Sequence: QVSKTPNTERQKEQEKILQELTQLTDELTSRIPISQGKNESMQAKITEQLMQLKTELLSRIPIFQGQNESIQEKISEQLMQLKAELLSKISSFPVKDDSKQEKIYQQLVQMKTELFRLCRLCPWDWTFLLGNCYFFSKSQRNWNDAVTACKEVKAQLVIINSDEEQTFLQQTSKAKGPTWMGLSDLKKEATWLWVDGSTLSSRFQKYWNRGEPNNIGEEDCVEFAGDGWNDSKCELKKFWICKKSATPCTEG
- method_summary: flow
- particulars: after the 5' primer region all dT replaced by 4 (alpha-D-mannose-triazole-modified C8-alkyne-dU); counter-target; 3.5-fold weaker than human
measure: Kd (nM)
Give bare numbers, in nM.

Provide the documented Kd with DC-SIGN (SIGNR1/CD209b) (Mus musculus) (UniProt Q8CJ91) as the system for GATCCCAGTCCGAAGTAATCCAAGGGTAATTGGGAAATAAGGATGGGGTAATATGCAACCCTTGTGCAAACGGCTATAGG [D1] 12.5
